B1: C9orf9 (parent)
chain: TKHKCRQLTKASLKPRGCSKPPWR

- Variants of: B1
- PROTOCOL_DESCRIPTION: protein stability index of a GFP-peptide fusion (GPS, HEK-293T) (PSI 1-6); higher = more stable;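 also: lentivirally expressed fusions sorted by FACS into six bins by GFP to DsRed ratio, PSI derived from sequencing read proportions per bin multiplied by bin number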
- RECORDED_CONDITIONS: c terminus: a fixed tail appended
Output true for protein stability index not less than 3; output false otherwise.

Please review the entries below; each comes with its answer.
variant_name=R16A class=false
variant_name=K4V class=false
variant_name=Q7G class=false
variant_name=C18G class=true
variant_name=P21Q class=true
variant_name=R16G class=false
variant_name=W23G class=false
variant_name=P22I class=false

Textbook exercise: given the entry L8F , state whether its protein stability index is greater than or equal to 3. true

What would you report for H3C ? false

Entry S12G please true

Now this one: S19E false

Same question, R16D this time true

Then this variant: C5R true

Entry source: the supplement of paper PMC10567573
